Provenance of the data: ChEMBL document CHEMBL1133608

Measured Kd of individual entries
biological target: D(2) dopamine receptor (Rattus norvegicus, UniProt P61169, S194A); assay: biochemical; type: cell-based, C6 glioma
Sequence (P61169 whole entry S194A): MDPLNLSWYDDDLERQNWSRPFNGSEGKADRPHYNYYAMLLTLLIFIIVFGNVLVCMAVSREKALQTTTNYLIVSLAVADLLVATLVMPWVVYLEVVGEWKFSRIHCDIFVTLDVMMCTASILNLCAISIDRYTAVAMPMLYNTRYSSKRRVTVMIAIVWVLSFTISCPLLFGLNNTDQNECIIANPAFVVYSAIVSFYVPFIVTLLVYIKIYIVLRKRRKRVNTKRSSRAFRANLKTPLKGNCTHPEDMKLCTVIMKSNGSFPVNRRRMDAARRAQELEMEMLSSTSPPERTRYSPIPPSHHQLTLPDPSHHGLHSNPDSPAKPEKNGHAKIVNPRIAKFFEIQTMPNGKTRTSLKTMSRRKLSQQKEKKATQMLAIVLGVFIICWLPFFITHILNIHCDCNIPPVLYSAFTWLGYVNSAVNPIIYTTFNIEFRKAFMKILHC
Phrase the answer as number then unit, nothing more needed.

Would you please look over these solved cases?
| compound | Kd |
| --- | --- |
| COc1cc(CCN)ccc1O | 251000 nM |
| N[C@@H]1CCc2cc(O)c(O)cc2C1 | 17000 nM |
| CC(C)C[C@H]1C(=O)N2CCC[C@H]2[C@]2(O)O[C@](NC(=O)[C@@H]3C=C4c5cccc6[nH]c(Br)c(c56)C[C@H]4N(C)C3)(C(C)C)C(=O)N12 | 8 nM |

Please list Kd recorded for the compound CCCN1Cc2c(C)cccc2[C@@H]2c3cc(O)c(O)cc3CC[C@H]21
1300 nM

Report Kd for CCN(CC)C(=O)N[C@H]1C=C2c3cccc4[nH]cc(c34)C[C@H]2N(C)C1 [LISURIDE]
0.3 nM

Supply reported Kd belonging to this compound: CN1C[C@H](C(N)=O)C=C2c3cccc4[nH]cc(c34)C[C@H]21
1.8 nM
